Recorded enrichment ratio values for a group of variants are listed next.
B1: PhoQ; a variant is named by its letters at X, in order, P23837 (parent)
chain: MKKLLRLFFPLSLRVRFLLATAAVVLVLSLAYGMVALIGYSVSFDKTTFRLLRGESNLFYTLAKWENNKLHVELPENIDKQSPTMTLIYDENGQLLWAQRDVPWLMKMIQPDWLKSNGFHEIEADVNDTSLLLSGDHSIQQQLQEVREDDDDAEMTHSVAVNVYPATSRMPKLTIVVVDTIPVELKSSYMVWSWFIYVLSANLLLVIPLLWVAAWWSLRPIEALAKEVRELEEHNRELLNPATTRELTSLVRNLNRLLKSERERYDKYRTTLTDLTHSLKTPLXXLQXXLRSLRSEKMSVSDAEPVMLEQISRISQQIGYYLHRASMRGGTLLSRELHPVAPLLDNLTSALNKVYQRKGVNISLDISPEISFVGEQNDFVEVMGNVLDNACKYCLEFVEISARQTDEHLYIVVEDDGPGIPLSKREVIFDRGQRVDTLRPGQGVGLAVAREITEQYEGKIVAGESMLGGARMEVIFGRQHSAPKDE

Variants of: B1
Test: enrichment ratio after two sorts for PhoP signalling (ratio (wild type AVST 3.29)); higher = more functional
Conditions: with PhoP (E. coli)
Over roughly 140,000 sequences, “enrichment ratio after two sorts for PhoP signalling” has its median near 0; the highest 2% begin near 11. Many of the other results were omitted from the sample, so the highest values are more common in it than they were.
property_measured: enrichment ratio

[[record]]
mutation_key = "AEIE"
property_measured = "enrichment ratio"
result = "≤ 0.25"

[[record]]
mutation_key = "PWWY"
property_measured = "enrichment ratio"
result = "≤ 0.25"

[[record]]
mutation_key = "AEFQ"
property_measured = "enrichment ratio"
result = 3.73

[[record]]
mutation_key = "QEFG"
property_measured = "enrichment ratio"
result = 30.8

[[record]]
mutation_key = "ACVQ"
property_measured = "enrichment ratio"
result = 2.26

[[record]]
mutation_key = "ACHP"
property_measured = "enrichment ratio"
result = "≤ 0.25"

[[record]]
mutation_key = "EYTQ"
property_measured = "enrichment ratio"
result = "≤ 0.25"

[[record]]
mutation_key = "AEHP"
property_measured = "enrichment ratio"
result = "≤ 0.25"

[[record]]
mutation_key = "WKII"
property_measured = "enrichment ratio"
result = "≤ 0.25"

[[record]]
mutation_key = "AEIA"
property_measured = "enrichment ratio"
result = 15.4

[[record]]
mutation_key = "LAGL"
property_measured = "enrichment ratio"
result = "≤ 0.25"

[[record]]
mutation_key = "NKKA"
property_measured = "enrichment ratio"
result = "≤ 0.25"

[[record]]
mutation_key = "QQFA"
property_measured = "enrichment ratio"
result = "≤ 0.25"

[[record]]
mutation_key = "QKFG"
property_measured = "enrichment ratio"
result = "≤ 0.25"

[[record]]
mutation_key = "KSEA"
property_measured = "enrichment ratio"
result = "≤ 0.25"

[[record]]
mutation_key = "YDDH"
property_measured = "enrichment ratio"
result = "≤ 0.25"

[[record]]
mutation_key = "AQHP"
property_measured = "enrichment ratio"
result = "≤ 0.25"

[[record]]
mutation_key = "RGWC"
property_measured = "enrichment ratio"
result = "≤ 0.25"

[[record]]
mutation_key = "EMCT"
property_measured = "enrichment ratio"
result = "≤ 0.25"

[[record]]
mutation_key = "WFHV"
property_measured = "enrichment ratio"
result = "≤ 0.25"

[[record]]
mutation_key = "QQFG"
property_measured = "enrichment ratio"
result = 20.2

[[record]]
mutation_key = "ETGL"
property_measured = "enrichment ratio"
result = "≤ 0.25"

